# measurement.target: T1, dimeric hActRIIB (human, UniProt Q13705 19-134)
# T1 construct: also called ActRIIB DIMER; ActRIIB dimer
# T1 sequence (Q13705 19-134): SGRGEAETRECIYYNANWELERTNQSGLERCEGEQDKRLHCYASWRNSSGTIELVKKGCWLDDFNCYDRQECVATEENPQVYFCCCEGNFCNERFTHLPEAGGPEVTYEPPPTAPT
# method: SPR (Biacore), 37 C, antibody captured on anti-hFc IgG chip, dimeric ActRIIB injected, 1:1 model
Think of 300000 M⁻¹ s⁻¹ as a floor: if kon stands on it or above, it is fulfilled; beneath it, not fulfilled.

* N01 (antibody, human IgG1, kappa, V domains shown, also called N01 antibody; mAB N01) VH: QLQLQESGPGLVKPSETLSLTCTVSGGSISSSSYYWGWIRQPPGKGLEWIGSISYSGSTYYNPSLKSRVTISVDTSKNQFSLKLSSVTAADTAVYYCARDSLRYGMDVWGQGTTVTVSS VL: DIQMTQSPSTLSASVGDRVTITCRASQSIGSWLAWYQQKPGKAPKLLIYKASSLESGVPSRFSGSGSGTEFTLTISSLQPDDFATYYCQVYGSYSPRTFGGGTKVEIKR | not fulfilled
* L01 (antibody, human IgG1, kappa, V domains shown, Naive human IgG; also called L01 antibody; mAB L01) VH: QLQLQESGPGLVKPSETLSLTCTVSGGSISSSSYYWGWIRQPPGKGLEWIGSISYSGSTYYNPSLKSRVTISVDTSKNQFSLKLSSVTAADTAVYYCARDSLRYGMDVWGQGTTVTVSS VL: EIVMTQSPATLSVSPGERATLSCRASQSVSSNLAWYQQKPGQAPRLLIYGASTRATGIPARFSGSGSGTEFTLTISSLQSEDFAVYYCQVYNVWPRTFGGGTKVEIKR | not fulfilled
* P01 (antibody, V domains shown, Naive human IgG; also called P01 antibody; mAB P01) VH: EVQLLESGGGLVQPGGSLRLSCAASGFTFSSYAMSWVRQAPGKGLEWVSAISGSGGSTSYADSVKGRFTISRDNSKNTLYLQMNSLRAEDTAVYYCARLPQYSRPFDYWGQGTLVTVSS VL: DIQMTQSPSSVSASVGDRVTITCRASQGISSWLAWYQQKPGKAPKLLIYAASSLQSGVPSRFSGSGSGTDFTLTISSLQPEDFATYYCQQGHSFPLTFGGGTKVEIK | fulfilled
* J01 (antibody, V domains shown, also called J01 antibody; mAB J01) VH: QVQLVQSGAEVKKPGASVKVSCKASGYTFTSYRMHWVRQAPGQGLEWMGFIVPSGGSTSYAQKFQGRVTMTRDTSTSTVYMELSSLRSEDTAVYYCARVSRYAPEPMDVWGQGTTVTVSS VL: DIQMTQSPSSVSASVGDRVTITCRASQGISRWLAWYQQKPGKAPKLLIYAASSLQSGVPSRFSGSGSGTDFTLTISSLQPEDFATYYCQQAFSHPWTFGGGTKVEIK | fulfilled

Source of measurements: patent US20260132207A1
